EXPERIMENTAL DETAILS: Pharmacokinetics after IV or oral administration in mouse
Assay type: in vivo
MEASUREMENT SETUP: female, plasma; CD-1 mouse F, IV bolus, EES (sol'n), 10 mg/kg
MEASUREMENT NAME: AUC(0-inf) (ng·h/mL)

In [3]: df
Out[3]:
                                   compound  measurement_name  result_number
0  CN(NC(=O)CC(=O)NN(C)C(=S)c1ccccc1)C(=S)c1ccccc1 [Compound 1]        AUC(0-inf)           3950

====

EXPERIMENTAL DETAILS: Pharmacokinetics after IV or oral administration in rat
Format: in vivo, SD rat
MEASUREMENT SETUP: male, Sprague-Dawley, rat, plasma, po, 50 mg/kg, SD rat M, TPGS/PEG400 (sol'n)
MEASUREMENT NAME: half-life (h)

                           substance_smiles  measurement_name  result_number
0  CN(NC(=O)CC(=O)NN(C)C(=S)c1ccccc1)C(=S)c1ccccc1         half-life            2.1

====

EXPERIMENTAL DETAILS: Pharmacokinetics after IV or oral administration in mouse
Assay type: in vivo
MEASUREMENT SETUP: female, plasma; CD-1 mouse F, IV bolus, EES (sol'n), 10 mg/kg
MEASUREMENT NAME: Cmax (ng/mL)

                                   compound  measurement_name  result_number
0  CN(NC(=O)CC(=O)NN(C)C(=S)c1ccccc1)C(=S)c1ccccc1 [Compound 1]              Cmax           6500

====

EXPERIMENTAL DETAILS: Pharmacokinetics after IV or oral administration in rat
Assay type: in vivo, SD rat
MEASUREMENT SETUP: male, Sprague-Dawley, rat, plasma, iv, 25 mg/kg, SD rat M, IV bolus, EES (sol'n)
MEASUREMENT NAME: Cmax (ng/mL)

In [3]: df
Out[3]:
                                   molecule  measurement_name  result_number
0  CN(NC(=O)CC(=O)NN(C)C(=S)c1ccccc1)C(=S)c1ccccc1 [Compound 1]              Cmax          29000

====

EXPERIMENTAL DETAILS: Pharmacokinetics after IV or oral administration in rat
Format: in vivo, SD rat
MEASUREMENT SETUP: male, Sprague-Dawley, rat, plasma, iv, 25 mg/kg, SD rat M, IV bolus, EES (sol'n)
MEASUREMENT NAME: half-life (h)

>>> print(df.to_string())
                           substance_smiles  result_number
0  CN(NC(=O)CC(=O)NN(C)C(=S)c1ccccc1)C(=S)c1ccccc1            1.7

====

EXPERIMENTAL DETAILS: Pharmacokinetics after IV or oral administration in rat
Type: in vivo, SD rat
MEASUREMENT SETUP: male, Sprague-Dawley, plasma; SD rat M, PO, Saline, 50 mg/kg
MEASUREMENT NAME: bioavailability (%)

>>> print(df.to_string())
                                   compound  measurement_name  result_number
0  CN(NC(=O)CC(=O)NN(C)C(=S)c1ccccc1)C(=S)c1ccccc1 [Compound 22]   bioavailability           10.5
